- Test system: Acinetobacter baumannii strains
- measurement_notes: Antibiotic susceptibility test (CLSI disk diffusion test method, read per CLSI 2016); note: key: ‘S’ means susceptible; ‘I’ means intermediate; ‘R’ means resistant
- Assay type: cell-based
- condition: host strain YMC14/03/R2144
measurement_name: antibiotic susceptibility class

Look up antibiotic susceptibility class for this compound: CO/N=C(\C(=O)N[C@@H]1C(=O)N2C(C(=O)O)=C(COC(C)=O)CS[C@H]12)c1csc(N)n1
R

Ok, now CC(C)(O/N=C(\C(=O)N[C@@H]1C(=O)N2C(C(=O)[O-])=C(C[n+]3ccccc3)CS[C@H]12)c1csc(N)n1)C(=O)O
R

Same lookup for NCC[C@H](O)C(=O)N[C@@H]1C[C@H](N)[C@@H](O[C@H]2O[C@H](CN)[C@@H](O)[C@H](O)[C@H]2O)[C@H](O)[C@H]1O[C@H]1O[C@H](CO)[C@@H](O)[C@H](N)[C@H]1O , please.
R
